Where do these numbers come from? They come from the supplement of paper PMC11732987.

Biological target: VCPIP1 (UniProt Q96JH7)
Sequence (Q96JH7 whole entry, the tested form may be a part): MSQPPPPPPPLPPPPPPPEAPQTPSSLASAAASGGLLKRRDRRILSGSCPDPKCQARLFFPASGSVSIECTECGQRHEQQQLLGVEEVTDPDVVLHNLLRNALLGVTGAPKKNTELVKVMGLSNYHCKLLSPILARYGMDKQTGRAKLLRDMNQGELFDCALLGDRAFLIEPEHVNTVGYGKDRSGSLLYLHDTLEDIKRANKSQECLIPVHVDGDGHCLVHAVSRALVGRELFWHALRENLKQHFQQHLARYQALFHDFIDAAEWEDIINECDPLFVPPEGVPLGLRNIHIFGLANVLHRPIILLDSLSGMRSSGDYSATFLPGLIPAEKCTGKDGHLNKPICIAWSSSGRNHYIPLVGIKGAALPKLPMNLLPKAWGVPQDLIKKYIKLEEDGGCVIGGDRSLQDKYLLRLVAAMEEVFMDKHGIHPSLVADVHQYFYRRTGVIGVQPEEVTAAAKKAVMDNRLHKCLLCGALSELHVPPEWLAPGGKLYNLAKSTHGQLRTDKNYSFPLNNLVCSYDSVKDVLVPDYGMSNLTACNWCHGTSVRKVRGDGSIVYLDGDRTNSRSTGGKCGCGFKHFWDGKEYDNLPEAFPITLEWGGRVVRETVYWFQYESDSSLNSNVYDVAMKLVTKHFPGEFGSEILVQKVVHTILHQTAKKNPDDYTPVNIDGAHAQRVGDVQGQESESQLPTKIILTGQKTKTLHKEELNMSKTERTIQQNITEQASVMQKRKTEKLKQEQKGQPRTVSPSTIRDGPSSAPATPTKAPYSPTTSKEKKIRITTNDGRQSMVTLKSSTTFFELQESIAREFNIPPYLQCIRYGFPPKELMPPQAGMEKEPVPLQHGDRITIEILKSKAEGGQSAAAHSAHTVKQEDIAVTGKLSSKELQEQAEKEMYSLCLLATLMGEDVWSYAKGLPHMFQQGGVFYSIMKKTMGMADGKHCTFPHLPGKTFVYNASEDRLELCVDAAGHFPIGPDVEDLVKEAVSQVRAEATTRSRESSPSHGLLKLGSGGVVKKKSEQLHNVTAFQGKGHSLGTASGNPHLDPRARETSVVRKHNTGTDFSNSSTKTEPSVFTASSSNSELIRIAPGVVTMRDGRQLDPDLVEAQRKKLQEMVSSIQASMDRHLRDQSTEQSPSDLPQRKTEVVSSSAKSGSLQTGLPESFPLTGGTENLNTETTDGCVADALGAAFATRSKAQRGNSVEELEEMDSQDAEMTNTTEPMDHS
Test: log2 ratio of Biotin-Ahx-Ub-VS probe labelling (fragment/DMSO); higher = less target engagement (more negative = stronger competition), active = hit call of the paper (q ≤ 0.05, log2 ratio ≤ -1)
Details: compound concentration: 200 uM; treatment time: 3 h
Permitted responses: True for active, False for inactive

Cc1cccc(C)c1NC(=O)CCl
False
Cc1nc(CN2CCN(C(=O)CCl)CC2)cs1
False
O=C(CCl)NCCc1ccc(F)cc1
False

## Task Tell me the recorded outcome of this test for "Cc1cc(Cl)ccc1NC(=O)CCl" .
## Result False

## Task Tell me the recorded outcome of this test for Cl.Cn1ncc2c1CCCC2NC(=O)CCl (stereo not drawn) .
## Result True

## Task Tell me the recorded outcome of this test for Cc1ccc(N2CCC(NC(=O)CCl)C2=O)cc1 (stereo not drawn) .
## Result True

## Task Tell me the recorded outcome of this test for "Cc1cnc2[nH]cc(CCNC(=O)CCl)c2c1" .
## Result True

## Task Tell me the recorded outcome of this test for Cl.Cn1ncc2c1CC(NC(=O)CCl)CC2 (stereo not drawn) .
## Result False

## Task Tell me the recorded outcome of this test for CC(=O)C1CCCCN1C(=O)CCl (stereo not drawn) .
## Result False

## Task Tell me the recorded outcome of this test for "Cl.O=C(CCl)NCc1cc2c(nc1O)CCCC2" .
## Result True

## Task Tell me the recorded outcome of this test for "O=C(CCl)Nc1cc2c(cc1Cl)OCCCO2" .
## Result True

## Task Tell me the recorded outcome of this test for "CCN(Cc1ccc(C#N)cc1F)C(=O)CCl" .
## Result False

## Task Tell me the recorded outcome of this test for "O=C(CCl)N[C@H]1CCS(=O)(=O)c2ccccc21" .
## Result False

## Task Tell me the recorded outcome of this test for "Cc1cccn2cc(CCNC(=O)CCl)nc12.Cl" .
## Result True

## Task Tell me the recorded outcome of this test for "Cc1c(C#N)c(NC(=O)CCl)n(Cc2ccco2)c1C" .
## Result True

## Task Tell me the recorded outcome of this test for O=C(CCl)N1CCc2nc[nH]c2C1c1ccc(Cl)cc1 (stereo not drawn) .
## Result True

---

Biological target: USP48 (UniProt Q86UV5)
Sequence (Q86UV5 whole entry, the tested form may be a part): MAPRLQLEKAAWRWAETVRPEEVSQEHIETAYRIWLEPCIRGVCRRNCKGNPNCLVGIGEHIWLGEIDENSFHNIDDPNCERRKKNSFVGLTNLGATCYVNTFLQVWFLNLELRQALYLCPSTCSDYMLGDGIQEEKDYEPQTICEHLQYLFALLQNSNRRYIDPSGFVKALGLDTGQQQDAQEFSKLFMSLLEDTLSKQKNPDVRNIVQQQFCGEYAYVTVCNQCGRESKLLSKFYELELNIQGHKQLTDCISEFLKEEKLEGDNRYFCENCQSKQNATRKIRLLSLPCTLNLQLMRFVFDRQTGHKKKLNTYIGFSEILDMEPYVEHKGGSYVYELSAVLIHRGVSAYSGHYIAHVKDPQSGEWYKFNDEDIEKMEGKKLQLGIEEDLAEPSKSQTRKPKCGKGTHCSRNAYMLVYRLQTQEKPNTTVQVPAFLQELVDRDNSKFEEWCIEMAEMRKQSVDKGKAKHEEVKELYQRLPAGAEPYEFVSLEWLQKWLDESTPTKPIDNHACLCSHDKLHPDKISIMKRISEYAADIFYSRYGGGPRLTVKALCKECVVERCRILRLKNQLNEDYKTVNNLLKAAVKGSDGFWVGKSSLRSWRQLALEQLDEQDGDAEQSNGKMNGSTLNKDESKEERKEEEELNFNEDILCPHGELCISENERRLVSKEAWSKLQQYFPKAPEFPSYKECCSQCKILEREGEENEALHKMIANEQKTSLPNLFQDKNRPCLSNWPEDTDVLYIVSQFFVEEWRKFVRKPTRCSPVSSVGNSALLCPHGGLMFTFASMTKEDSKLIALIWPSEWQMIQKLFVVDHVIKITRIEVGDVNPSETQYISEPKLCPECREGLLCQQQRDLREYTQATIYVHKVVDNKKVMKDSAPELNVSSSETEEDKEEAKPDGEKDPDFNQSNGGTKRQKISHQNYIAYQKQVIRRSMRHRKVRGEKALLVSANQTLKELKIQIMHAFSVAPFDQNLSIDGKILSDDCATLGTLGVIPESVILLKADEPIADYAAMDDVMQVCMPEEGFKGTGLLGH
Assay: log2 ratio of Biotin-Ahx-Ub-VS probe labelling (fragment/DMSO); higher = less target engagement (more negative = stronger competition), active = hit call of the paper (q ≤ 0.05, log2 ratio ≤ -1)
Conditions: compound concentration: 200 uM; treatment time: 3 h
# binarize log2 ratio of Biotin-Ahx-Ub-VS probe labelling: threshold 0.008 inclusive, high side true (1), low side false (0)

Completed entries (count: 3):
O=C(CCl)Nc1ccc(F)cc1Cl
false (0)
CN(C)C(=O)c1ccc(CNC(=O)CCl)cc1
true (1)
Cc1ccc(N(CCC#N)C(=O)CCl)cc1C
false (0)

## Task Given "Cl.O=C(CCl)N1CC(c2ccc(Br)cn2)C1" , state whether its log2 ratio of Biotin-Ahx-Ub-VS probe labelling is at least 0.008.
## Result false (0)

## Task Given "Cl.Cn1cnc2cc(CNC(=O)CCl)ccc21" , state whether its log2 ratio of Biotin-Ahx-Ub-VS probe labelling is at least 0.008.
## Result true (1)

## Task Given "O=C(CCl)Nc1cc2c(cc1Cl)OCCO2" , state whether its log2 ratio of Biotin-Ahx-Ub-VS probe labelling is at least 0.008.
## Result false (0)

---

Target: USP34 (UniProt Q70CQ2)
Assay: log2 ratio of Biotin-Ahx-Ub-VS probe labelling (fragment/DMSO); higher = less target engagement (more negative = stronger competition), active = hit call of the paper (q ≤ 0.05, log2 ratio ≤ -1)
Settings: compound concentration: 200 uM; treatment time: 3 h
measured_quantity: log2 ratio of Biotin-Ahx-Ub-VS probe labelling

Examples with answers:
Cc1ccccc1C1(CNC(=O)CCl)CCOCC1
0.051 (inactive)
Cc1ncsc1CCNC(=O)CCl
0.121 (inactive)
CC1CCc2onc(CNC(=O)CCl)c2C1 (configuration not stated)
0.0236 (inactive)

Respectfully, I request log2 ratio of Biotin-Ahx-Ub-VS probe labelling for each entry included below.
1. CC(c1ccccc1)N(C)C(=O)CCl (configuration not stated)
2. CS(=O)(=O)c1ccc(NC(=O)CCl)cc1
3. Cc1cc(C(=O)NC2CCN(C(=O)CCl)CC2)no1
4. O=C(CCl)Nc1cccc2ncccc12

## Result
["-0.323 (inactive)", "0.0382 (inactive)", "-0.22 (inactive)", "-0.104 (inactive)"]

---

Molecular target: USP36 (UniProt Q9P275)
Experiment: log2 ratio of Biotin-Ahx-Ub-VS probe labelling (fragment/DMSO); higher = less target engagement (more negative = stronger competition), active = hit call of the paper (q ≤ 0.05, log2 ratio ≤ -1)
Settings: compound concentration: 200 uM; treatment time: 3 h
Exercise: state measured log2 ratio of Biotin-Ahx-Ub-VS probe labelling for each of the compounds provided.
One number for each entry.

Examples with answers:
COc1ccc(-c2csc(NC(=O)CCl)n2)cc1
-0.137
Cc1ccc(CNC(=O)CCl)nc1C.Cl
0.158

Respectfully, I request log2 ratio of Biotin-Ahx-Ub-VS probe labelling for each entry included below.
1. Cc1cc(C(=O)NC2CCN(C(=O)CCl)CC2)no1
2. Cl.O=C(CCl)NCCc1ncc(F)cc1F
3. Cc1ccc(CC(CO)CNC(=O)CCl)cc1 (configuration not stated)
4. O=C(CCl)N1c2ccccc2NC(=O)C12CCCC2

## Result
1. -0.0502
2. -0.308
3. -0.19
4. 0.111

Note to self: log2 ratio of Biotin-Ahx-Ub-VS probe labelling recorded for "Cc1ncsc1CCNC(=O)CCl" was -0.151

---

Biological target: OTUD5 (UniProt Q96G74)
Sequence (whole entry): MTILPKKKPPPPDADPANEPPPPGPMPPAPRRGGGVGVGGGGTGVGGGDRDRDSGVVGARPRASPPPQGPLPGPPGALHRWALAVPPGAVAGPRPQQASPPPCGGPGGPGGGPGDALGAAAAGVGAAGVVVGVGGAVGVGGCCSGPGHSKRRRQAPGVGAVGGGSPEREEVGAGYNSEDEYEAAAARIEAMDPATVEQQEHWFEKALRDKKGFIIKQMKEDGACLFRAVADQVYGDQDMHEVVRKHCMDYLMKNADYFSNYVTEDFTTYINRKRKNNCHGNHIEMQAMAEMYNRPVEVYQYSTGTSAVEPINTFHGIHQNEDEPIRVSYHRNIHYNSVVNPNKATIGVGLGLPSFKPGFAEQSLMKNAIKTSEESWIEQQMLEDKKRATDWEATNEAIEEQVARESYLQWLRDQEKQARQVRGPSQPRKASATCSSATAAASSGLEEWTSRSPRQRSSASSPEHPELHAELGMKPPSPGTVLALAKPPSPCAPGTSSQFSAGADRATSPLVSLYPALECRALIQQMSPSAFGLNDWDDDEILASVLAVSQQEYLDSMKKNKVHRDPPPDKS
Experiment: log2 ratio of Biotin-Ahx-Ub-VS probe labelling (fragment/DMSO); higher = less target engagement (more negative = stronger competition), active = hit call of the paper (q ≤ 0.05, log2 ratio ≤ -1)
Details: compound concentration: 200 uM; treatment time: 3 h
# binarize log2 ratio of Biotin-Ahx-Ub-VS probe labelling: threshold -0.4 inclusive, high side true, low side false

Completed entries (count: 4):
Cc1cc(C2CCCN2C(=O)CCl)nn1C.Cl (centres undefined)
true
O=C(CCl)N1CCc2ccccc2C(O)C1 (centres undefined)
false
O=C(CCl)Nc1ccc2c(c1)OC(F)(F)O2
false
O=C(CCl)N(C1CCCC1)C1CCS(=O)(=O)C1 (centres undefined)
true

Read the next record carefully.
## Task Given "O=C(CCl)N1CCC[C@@H]1c1ccon1" , state whether its log2 ratio of Biotin-Ahx-Ub-VS probe labelling is at least -0.4.
## Result false

---

Molecular target: UniProt O00507
Sequence (O00507 whole entry, the tested form may be a part): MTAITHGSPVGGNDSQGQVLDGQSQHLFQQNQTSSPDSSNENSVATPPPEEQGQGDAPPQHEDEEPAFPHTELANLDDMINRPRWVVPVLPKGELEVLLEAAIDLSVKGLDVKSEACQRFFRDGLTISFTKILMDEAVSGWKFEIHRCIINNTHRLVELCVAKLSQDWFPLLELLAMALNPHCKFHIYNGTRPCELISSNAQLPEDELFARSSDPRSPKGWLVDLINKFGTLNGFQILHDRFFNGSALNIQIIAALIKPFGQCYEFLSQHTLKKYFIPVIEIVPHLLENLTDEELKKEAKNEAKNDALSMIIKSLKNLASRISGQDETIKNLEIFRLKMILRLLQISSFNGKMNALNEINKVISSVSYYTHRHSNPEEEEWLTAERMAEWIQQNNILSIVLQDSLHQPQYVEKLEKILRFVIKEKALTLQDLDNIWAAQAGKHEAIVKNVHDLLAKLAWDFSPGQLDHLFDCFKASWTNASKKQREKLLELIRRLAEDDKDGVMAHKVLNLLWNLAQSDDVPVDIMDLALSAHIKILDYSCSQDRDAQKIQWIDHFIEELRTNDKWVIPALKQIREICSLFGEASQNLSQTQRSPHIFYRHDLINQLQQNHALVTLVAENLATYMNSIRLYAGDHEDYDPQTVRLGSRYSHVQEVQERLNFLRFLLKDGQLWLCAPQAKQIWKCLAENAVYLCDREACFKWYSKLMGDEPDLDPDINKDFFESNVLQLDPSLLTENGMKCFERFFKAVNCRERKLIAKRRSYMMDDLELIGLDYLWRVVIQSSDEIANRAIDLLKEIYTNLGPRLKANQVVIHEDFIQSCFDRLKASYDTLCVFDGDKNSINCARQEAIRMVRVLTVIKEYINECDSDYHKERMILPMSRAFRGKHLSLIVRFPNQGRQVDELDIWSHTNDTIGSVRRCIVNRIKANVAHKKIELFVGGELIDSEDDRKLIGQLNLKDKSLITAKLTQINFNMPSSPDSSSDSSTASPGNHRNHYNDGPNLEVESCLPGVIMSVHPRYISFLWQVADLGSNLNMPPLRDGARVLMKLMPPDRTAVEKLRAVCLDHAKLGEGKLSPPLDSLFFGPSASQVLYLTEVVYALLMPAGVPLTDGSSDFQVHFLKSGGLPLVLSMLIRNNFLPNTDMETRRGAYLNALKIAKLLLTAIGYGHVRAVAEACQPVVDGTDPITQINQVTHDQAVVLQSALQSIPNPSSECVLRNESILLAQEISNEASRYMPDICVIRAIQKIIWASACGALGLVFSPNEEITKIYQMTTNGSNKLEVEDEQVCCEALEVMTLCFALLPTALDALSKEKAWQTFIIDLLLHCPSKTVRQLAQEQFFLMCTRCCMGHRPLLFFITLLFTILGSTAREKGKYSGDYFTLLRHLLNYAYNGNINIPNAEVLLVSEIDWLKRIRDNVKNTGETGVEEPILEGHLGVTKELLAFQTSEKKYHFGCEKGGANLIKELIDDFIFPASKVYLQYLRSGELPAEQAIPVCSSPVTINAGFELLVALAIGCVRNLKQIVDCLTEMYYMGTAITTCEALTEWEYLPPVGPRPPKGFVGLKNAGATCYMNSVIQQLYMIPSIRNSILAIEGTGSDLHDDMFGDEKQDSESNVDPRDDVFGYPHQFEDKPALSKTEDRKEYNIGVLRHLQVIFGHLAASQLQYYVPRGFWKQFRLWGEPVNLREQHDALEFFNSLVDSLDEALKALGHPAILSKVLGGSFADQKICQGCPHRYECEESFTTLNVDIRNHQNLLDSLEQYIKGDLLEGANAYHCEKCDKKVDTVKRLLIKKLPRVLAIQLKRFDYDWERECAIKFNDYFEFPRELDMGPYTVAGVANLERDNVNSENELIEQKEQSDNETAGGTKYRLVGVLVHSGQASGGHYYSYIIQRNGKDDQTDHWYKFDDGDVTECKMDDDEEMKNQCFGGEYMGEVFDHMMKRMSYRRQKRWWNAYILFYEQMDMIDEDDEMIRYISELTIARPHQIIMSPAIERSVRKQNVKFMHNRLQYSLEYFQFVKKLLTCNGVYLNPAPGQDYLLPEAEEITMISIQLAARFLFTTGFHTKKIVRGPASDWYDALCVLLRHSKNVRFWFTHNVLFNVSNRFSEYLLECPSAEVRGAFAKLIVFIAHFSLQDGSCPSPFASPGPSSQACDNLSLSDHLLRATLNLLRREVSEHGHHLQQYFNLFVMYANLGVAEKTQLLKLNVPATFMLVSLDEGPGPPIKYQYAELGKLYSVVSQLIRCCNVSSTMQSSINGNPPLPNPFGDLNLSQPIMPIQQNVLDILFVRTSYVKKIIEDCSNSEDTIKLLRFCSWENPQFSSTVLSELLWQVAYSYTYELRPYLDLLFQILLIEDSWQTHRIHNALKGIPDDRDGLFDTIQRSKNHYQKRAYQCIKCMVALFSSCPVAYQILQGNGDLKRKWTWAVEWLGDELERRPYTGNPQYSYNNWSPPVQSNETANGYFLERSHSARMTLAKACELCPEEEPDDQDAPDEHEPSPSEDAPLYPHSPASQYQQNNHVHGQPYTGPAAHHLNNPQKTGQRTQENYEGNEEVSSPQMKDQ
Assay: log2 ratio of Biotin-Ahx-Ub-VS probe labelling (fragment/DMSO); higher = less target engagement (more negative = stronger competition), active = hit call of the paper (q ≤ 0.05, log2 ratio ≤ -1)
Conditions: compound concentration: 200 uM; treatment time: 3 h
# binarize log2 ratio of Biotin-Ahx-Ub-VS probe labelling: threshold -0.02 inclusive, high side Satisfied, low side Not satisfied

Completed entries (count: 5):
Cc1cc(Cl)ccc1NC(=O)CCl
Satisfied
O=C(CCl)NCc1cccc(N2CCCC2=O)c1
Not satisfied
Cl.Cn1cnc2cc(CNC(=O)CCl)ccc21
Satisfied
Cc1ccc(N2CCC(NC(=O)CCl)C2=O)cc1 (stereo not drawn)
Satisfied
O=C(CCl)NCCc1ccc(F)cc1
Not satisfied

## Task Given COc1ccc(C2CCCN2C(=O)CCl)c(OC)c1 (stereo not drawn) , state whether its log2 ratio of Biotin-Ahx-Ub-VS probe labelling is at least -0.02.
## Result Satisfied

## Task Given CC(NC(=O)CCl)c1csc(-c2ccccc2)n1.Cl (stereo not drawn) , state whether its log2 ratio of Biotin-Ahx-Ub-VS probe labelling is at least -0.02.
## Result Not satisfied

## Task Given "Cl.O=C(CCl)N1CC(c2ccc(Br)cn2)C1" , state whether its log2 ratio of Biotin-Ahx-Ub-VS probe labelling is at least -0.02.
## Result Not satisfied

## Task Given "CN(C)C(=O)c1ccc(CNC(=O)CCl)cc1" , state whether its log2 ratio of Biotin-Ahx-Ub-VS probe labelling is at least -0.02.
## Result Satisfied

## Task Given Cc1ccc(CC(CO)CNC(=O)CCl)cc1 (stereo not drawn) , state whether its log2 ratio of Biotin-Ahx-Ub-VS probe labelling is at least -0.02.
## Result Not satisfied

## Task Given "CS(=O)(=O)N1CCCN(C(=O)CCl)CC1" , state whether its log2 ratio of Biotin-Ahx-Ub-VS probe labelling is at least -0.02.
## Result Satisfied

## Task Given "O=C(CCl)N1CCN(C(=O)Nc2ccccc2)CC1" , state whether its log2 ratio of Biotin-Ahx-Ub-VS probe labelling is at least -0.02.
## Result Satisfied

## Task Given CCN1C(=O)C2CN(C(=O)CCl)CCN2C1=O (stereo not drawn) , state whether its log2 ratio of Biotin-Ahx-Ub-VS probe labelling is at least -0.02.
## Result Satisfied
